assay: chemical genetic growth profiling, strain panel (AID 1159580);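 note: tested at 20 µM; growth read once vehicle control cultures reached saturation at 30 °C; 1 = growth at the plate median or of vehicle wells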; details: S. cerevisiae deletion strains, growth OD, locus YNL067W, strain RPL9B, stronger effect = lower value
Among all 5,500 compounds or so, about 2,000 (36%) were called active. Inconclusive results (about 18%) are left out. The list shows a part of the results.
Examples of molecules with documented normalized growth follow.

Example entries begin here.
molecule	result
OC[C@H]1O[C@@](CO)(O[C@@H]2O[C@H](CO)[C@@H](O)[C@H](O)[C@H]2O)[C@@H](O[C@@H]2O[C@H](CO)[C@@H](O)[C@H](O)[C@H]2O)[C@@H]1O	1.03 (inactive)
COC(=O)/C(=C1\OC(=O)C(c2ccccc2)=C1O)c1ccccc1	1.03 (inactive)
CC(C)CCCC(C)[C@H]1CCC2C3CC=C4C[C@@H](O)CC[C@]4(C)C3CC[C@@]21C (stereo partly specified)	1 (inactive)
CC(C)=CC1C(C(=O)O)C1(C)C (stereo unspecified)	1.05 (inactive)
O=P1(N(CCCl)CCCl)NCCCO1 (stereo unspecified)	1.01 (inactive)
Cc1c(C)c2c(c(C)c1O)CCC(C)(CCCC(C)CCCC(C)CCCC(C)C)O2 (stereo unspecified)	1 (inactive)

Query :: Requested read-out: normalized growth. Entry: CC(C)CCCC(C)[C@H]1CCC2C3CC=C4CC(=O)CC[C@]4(C)C3CC[C@@]21C (stereo partly specified)
Result :: 0.987 (inactive)

Query :: Record request: normalized growth value, item CC(C)CCCC(C)C1CCC2C3=CC[C@H]4C[C@@H](O)CC[C@]4(C)C3CC[C@@]21C (stereo partly specified)
Result :: 0.991 (inactive)

Query :: Return reported normalized growth; argument: CC(Cc1cccc(C(F)(F)F)c1)NCCOC(=O)c1ccccc1 (stereo unspecified)
Result :: 0.923 (inactive)

---

test: chemical genetic growth profiling, strain panel (AID 1159580); conditions: S. cerevisiae deletion strains, growth OD, locus YHR200W, strain rpn10, stronger effect = lower value
Among all 5,500 compounds or so, about 2,000 (36%) were called active. Not shown: some 18% with an inconclusive outcome. This is one part of the list.
Listed next: entries and their corresponding normalized growth.
Write the number on its own, no unit after it.

compound	normalized growth
CC(C)CCCC(C)C1CCC2C3C[C@@H](O)[C@@]4(O)C[C@@H](O)CC[C@]4(C)C3CC[C@]12C (stereo partly drawn)	1.02
CN(C)CCCN1c2ccccc2CCc2ccccc21	1
C=C(C)C1(O)OC(=O)C=C1OC (stereo not drawn)	0.994
CN(C)CCCN1c2ccccc2Sc2ccccc21	1.02
O=C(O)c1ccc(S(=O)(=O)N(Cl)Cl)cc1	1.03
CN(C)CCCN1c2ccccc2CCc2ccc(Cl)cc21	0.998

Query :: Give its normalized growth value. Item: O=C1NC(O)=NC1(c1ccccc1)c1ccccc1
Result :: 1.01

Query :: Requested read-out: normalized growth. Entry: O=P1(N(CCCl)CCCl)NCCCO1 (stereo not drawn)
Result :: 1.02

Query :: Which normalized growth value is on record for CC(C)CCCC(C)[C@H]1CCC2C3C(=O)C=C4C[C@@H](O)CC[C@]4(C)C3CC[C@@]21C (stereo partly drawn) ?
Result :: 1

Query :: Form field: reported normalized growth of CCCSc1ccc2nc(NC(=O)OC)[nH]c2c1
Result :: 0.951

---

Recorded measurements of normalized growth, one per entry
assay: chemical genetic growth profiling, strain panel (AID 1159580); settings: S. cerevisiae deletion strains, growth OD, locus YNL322C, strain KRE1, stronger effect = lower value
The whole screen tested about 5,500 compounds, of which about 2,000 (36%) were called active. Inconclusive results (about 18%) are left out. The list shows a part of the results.
Write the value as a bare number.

Completed entries (count: 6):
compound	normalized growth
COc1ccc(C2Sc3ccccc3N(CCN(C)C)C(=O)C2OC(C)=O)cc1 (configuration not stated)	1.01
NCC(N)C(=O)c1ccccc1 (configuration not stated)	1.01
CC(=O)Oc1ccc(O)cc1	0.996
CC(C)CCCC(C)C1CC[C@@]2(C)C3=C(CC[C@]12C)[C@@]1(C)CC[C@H](O)C(C)(C)C1CC3 (some centres not stated)	1.01
Clc1cncc(Cl)c1N/N=C\C1CC2C=CC1C2 (configuration not stated)	0.986
O=C(O)CCCNCc1cccc2ccccc12	1.01

Query :: Item under review: CCN1CCN(C(=O)NC(C(=O)N[C@@H]2C(=O)N3[C@@H]2SC(C)(C)[C@@H]3C(=O)O)c2ccccc2)C(=O)C1=O (some centres not stated) . Reported normalized growth?
Result :: 1

Query :: // lookup normalized growth for CN(C)CCC(c1ccc(Cl)cc1)c1ccccn1 (configuration not stated)
Result :: 0.992

Query :: Return reported normalized growth; argument: O=C1NC2CC2N1C(=O)OCc1ccccc1 (configuration not stated)
Result :: 1

---

Recorded normalized growth by entry
experiment: chemical genetic growth profiling, strain panel (AID 1159580);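 note: tested at 20 µM; growth read once vehicle control cultures reached saturation at 30 °C; 1 = growth at the plate median or of vehicle wells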; details: S. cerevisiae deletion strains, growth OD, locus YOR270C, strain vph1, stronger effect = lower value
The whole screen tested about 5,500 compounds, of which about 2,000 (36%) were called active. Another 18% or so got no clear call; they are omitted. Some of the results follow.
// response body must contain only the number

// known answers, use as guide
molecule	quantitative-readout
CC(C)CCCC(C)[C@H]1CCC2C3CC=C4CC(=O)CC[C@]4(C)C3CC[C@@]21C (stereo partly drawn)	0.922
CC(C)CCCC(C)[C@H]1CCC2C3CC=C4C[C@@H](O)CC[C@]4(C)C3CC[C@@]21C (stereo partly drawn)	0.901

Query :: I am curious: what normalized growth value has been reported for CC(C)c1ccc2c(c1)CCC1C(C)(C(N)=O)CCCC21C (stereo not drawn) ?
Result :: 0.984

---

experiment: chemical genetic growth profiling, strain panel (AID 1159580);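 note: tested at 20 µM; growth read once vehicle control cultures reached saturation at 30 °C; 1 = growth at the plate median or of vehicle wells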; conditions: S. cerevisiae deletion strains, growth OD, locus YCL016C, strain dcc1
About 2,000 (36%) of roughly 5,500 compounds were called active. Inconclusive results (about 18%) are left out. No stated cut-off is given here; in the data, active means normalized growth mostly below about 0.91 (no sharp cut-off); inconclusive means no clear call, values can overlap the other calls; inactive means mostly above about 0.92. The list shows a part of the results.
Respond using exactly one of the listed classes: 1 (yes) = active, 0 (no) = inactive

Worked cases, answers included:
compound	class-name
CC(=O)Oc1ccc(C(c2ccc(OC(C)=O)cc2)c2ccccn2)cc1	0 (no)
OC[C@H]1O[C@@H](O[C@H]2[C@H](O)[C@@H](O)[C@@H](O)O[C@@H]2CO)[C@H](O)[C@@H](O)[C@@H]1O	0 (no)
CC1=CCCC2C1(C)CCC(C)C2(C)CC/C(C)=C/C[n+]1cn(C)c2c(N)ncnc21 (centres undefined)	0 (no)
CC(C)CCCC(C)[C@H]1CCC2C3CC=C4C[C@@H](O)CC[C@]4(C)C3CC[C@@]21C (some centres undefined)	0 (no)
CN[C@@H]1[C@H](O)[C@H](NC)[C@H]2O[C@@]3(O)C(=O)C[C@@H](C)O[C@H]3O[C@@H]2[C@H]1O	0 (no)
CC(C)CCCC(C)[C@H]1CCC2C3CC=C4CC(=O)CC[C@]4(C)C3CC[C@@]21C (some centres undefined)	0 (no)

Query :: GET /call?item= CC(C)(C)NCC(O)c1ccc(O)c(CO)c1 (centres undefined) returns the recorded outcome of this test.
Result :: 0 (no)

Query :: What outcome does the record of this test show for CC(C)CCCC(C)C1CCC2C3CC(=O)[C@H]4C[C@@H](O)CC[C@]4(C)C3CC[C@]12C (some centres undefined) ?
Result :: 0 (no)

Query :: Test call, this compound: Nc1ccc(C(=O)O)cc1
Result :: 0 (no)

Query :: For this compound, state the assay outcome: O=C(O)c1cc(O)c2c(c1)[C@@H]([C@H]1c3cc(C(=O)O)cc(O)c3C(=O)c3c(O[C@H]4O[C@H](CO)[C@@H](O)[C@H](O)[C@H]4O)cccc31)c1cccc(O[C@H]3O[C@H](CO)[C@@H](O)[C@H](O)[C@H]3O)c1C2=O
Result :: 0 (no)

Query :: Name the outcome recorded for CC1=CC(=O)c2c(O)cccc2C1=O in the assay.
Result :: 1 (yes)

Query :: Could you kindly confirm the outcome this assay logged for CC(=O)OCC(=O)[C@@]1(O)[C@H](C)CC2C3CCC4=CC(=O)C=C[C@]4(C)[C@@]3(F)[C@@H](O)C[C@@]21C (some centres undefined) ?
Result :: 0 (no)

Query :: Would you mind telling me which call this test gave CC(=O)O[C@H]1CC[C@@]2(C)C(=CC(=O)C3C4CCC(C(C)CCCC(C)C)[C@@]4(C)CCC32)C1 (some centres undefined) ?
Result :: 0 (no)

Query :: Record request — test call for COc1cc(C/C=C/c2ccccc2)c(OC)cc1O
Result :: 0 (no)

---

assay: chemical genetic growth profiling, strain panel (AID 1159580);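 note: tested at 20 µM; growth read once vehicle control cultures reached saturation at 30 °C; 1 = growth at the plate median or of vehicle wells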; details: S. cerevisiae deletion strains, growth OD, locus YDL005C, strain med2, stronger effect = lower value
Among all 5,500 compounds or so, about 2,000 (36%) were called active. Roughly 18% stayed inconclusive and do not appear here. The list shows a part of the results.
Entries annotated with measured normalized growth
Please give only the number in your answer, with no unit.

Sample answers from the record:
compound	normalized growth
NC(=O)c1cccnc1	0.966
CC(C)=CCCC(C)[C@@H]1CC[C@]2(C)C3=C(CC[C@@]12C)C1(C)CC[C@H](O)C(C)(C)C1CC3 (some centres undefined)	1.04
CC(CCc1ccccc1)NCC(O)c1ccc(O)c(C(N)=O)c1 (centres undefined)	1.01

The record that follows has no normalized growth shown yet.
Query :: Bench note: what normalized growth did OC[C@H]1O[C@@](CO)(O[C@@H]2O[C@H](CO)[C@@H](O)[C@H](O)[C@H]2O)[C@@H](O[C@@H]2O[C@H](CO)[C@@H](O)[C@H](O)[C@H]2O)[C@@H]1O show?
Result :: 1.02
